Method description: solvent given as SMILES
Experimental context: in CC#N
Observed property: fluorescence lifetime (ns)
Note: unit ns is implicit; provide only the numeric part.

Example results:
# Smiles record, Observed property, Measured result
measured = [
    ("Cc1cc(=O)oc2c1cc(Cl)c1occ(C)c12", "fluorescence lifetime", 0.27),
    ("Cc1ccc(-c2ccc(/C=C/c3ccc([N+](=O)[O-])cc3)cn2)nc1", "fluorescence lifetime", 0.31),
    ("C#CCn1c2ccccc2c2cc(/C=C/c3c(Cl)c(C)c4n3[B-](F)(F)[N+]3=C(C)C(Cl)=C(C)C3=C4c3ccc(I)cc3)ccc21", "fluorescence lifetime", 3.95),
    ("C=Cc1cc2ccc(OC(=O)c3ccccc3)cc2oc1=O", "fluorescence lifetime", 3.28),
]

Entry under test: Nc1cccc2c1-c1ccccc1C2=O . Its fluorescence lifetime was 4.2
